Test system: A549
Test: Antiproliferative activity against human A549 cells after 72 hrs by SRB assay
Format: functional, cell-based
Conditions: Homo sapiens, A549, 72 h
Value Kind: IC50 (µM)

1 = COc1cc2c(c(OC)c1OC)-c1c(cc3c(c1OC)OCO3)C[C@H](C)[C@](C)(O)C2
2 = C/C=C(\C)C(=O)O[C@H]1c2cc(OC)c(OC)c(OC)c2-c2c(cc3c(c2O)OCO3)C[C@H](C)[C@]1(C)O
3 = COc1cccc2c1C(=O)c1c(O)c3c(c(O)c1C2=O)C[C@@](O)(C(=O)CO)C[C@@H]3O[C@H]1C[C@H](N)[C@H](O)[C@H](C)O1
4 = COc1cc2c(c(OC)c1OC)-c1c(cc(OC)c(OC)c1OC)C[C@](C)(O)[C@@H](C)C2
Task item: Arrange the 4 molecules by rising IC50, starting with the smallest. Reply format: the labels, ordered as requested.
Reply: 3, 2, 4, 1
(3: 0.1 µM, 2: 5.6 µM, 4: 20.7 µM, 1: 84.1 µM)

* * *

Tested on: T47D
Test: Antiproliferative activity against human T47D cells after 72 hrs by SRB assay
Assay type: functional, cell-based
Conditions: Homo sapiens, T47D, 72 h
Value Kind: IC50

Consider the following illustrative entries.
In [3]: df
Out[3]:
                                   compound  experimental_target  value_measured
0  COc1c2c(cc3c1-c1c(cc4c(c1OC)OCO4)C[C@H](C)[C@H](C)C3)OCO2 [SCHISANDRIN C]                 T47D        > 100 µM
1  COc1cc2c(c(OC)c1OC)-c1c(cc3c(c1OC)OCO3)C[C@H](C)[C@](C)(O)C2 [GOMISIN A]                 T47D        > 100 µM

Next, consider the following compound.
Task item: // fetch T47D IC50 for C/C=C(\C)C(=O)O[C@H]1c2cc(OC)c(OC)c(OC)c2-c2c(cc3c(c2OC)OCO3)C[C@H](C)[C@]1(C)O [GOMISIN B]
Reply: > 100 µM
